# Measured Target: T1, biotinylated recombinant human FAP (human, UniProt Q12884 26-760, biotinylated)
# T1 construct: also called biotinylated human FAP
# Protocol Text: SPR (Biacore)
Give measured T ½ for each item. Keep answers brief.
One number for each entry, in min.

{"Binder": "P1AE1702_Fab, humanized anti-FAP clone 212 variant with VL2G2a (Fab, V domains shown, Fab) VH: EVQLLESGGGLVQPGGSLRLSCAASGYTLTDYNMDWVRQAPGKGLEWVGDIYPNTGGTIYNQKFKGRFTISIDKSKNTAYLQMNSLRAEDTAVYYCTRFRGIHYAMDYWGQGTTVTVSS VL: DIQMTQSPSSLSASVGDRVTITCRASESVDNYGLSFINWFQQKPGQPPKLLIYGTSNRGSGVPSRFSGSGSGTDFTLTISSLQPEDFAMYFCQQSNEVPYTFGGGTKVEIK", "Numeric Readout": 108}
{"Binder": "P1AE1693_Fab, humanized anti-FAP clone 212 variant VH1G2a/VL1G2a (Fab, V domains shown, Fab) VH: QVQLVQSGAEVKKPGASVKVSCKASGYTLTDYNMDWVRQAPGKSLEWIGDIYPNTGGTIYNQKFKGRVTMTIDKSTSTVYMELSSLRSEDTAVYYCTRFRGIHYAMDYWGQGTTVTVSS VL: EIVLTQSPATLSLSPGERATLSCRASESVDNYGLSFINWFQQKPGQPPRLLIYGTSNRGSGIPARFSGSGSGTDFTLTISSLEPEDFAVYFCQQSNEVPYTFGGGTKVEIK", "Numeric Readout": 161}

Switching to the query record.
Exam item: Request the reported T ½ associated with P1AE1690_Fab, humanized anti-FAP clone 212 variant VH1G2a/VL1G1a (Fab, V domains shown, Fab) VH: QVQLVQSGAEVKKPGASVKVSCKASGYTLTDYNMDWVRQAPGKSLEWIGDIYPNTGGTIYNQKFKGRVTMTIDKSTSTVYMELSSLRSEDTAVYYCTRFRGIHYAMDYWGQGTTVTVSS VL: EIVLTQSPATLSLSPGERATLSCRASESVDNYGLSFINWFQQKPGQAPRLLIYGTSNRGSGIPARFSGSGSGTDFTLTISSLEPEDFAVYFCQQSNEVPYTFGGGTKVEIK
Marked response: 183
